Hi there, I'd appreciate the recorded viability score for every entry that follows.
test system: RAW-Dual (murine macrophage reporter line); assay: viability score (confluency relative to resting cells, overnight) (fraction); higher = more viable, active = viable (0.7 or more); details: modulator concentration 10 µM

Reported viability score, molecule "Cc1c(OCc2ccc(Cl)cc2)ccc2c(C(F)(F)F)cc(=O)oc12" : ____ 1.02 (active)

Reported viability score, molecule "C[C@@H](O)[C@H]1C(=O)N2C(C(=O)O)=C(SCCNC=N)C[C@H]12" : ____ 0.994 (active)

Reported viability score, molecule "Cc1ccc(Nc2cc(N3CCCCC3)c(N)c3c2C(=O)c2ccccc2C3=O)cc1" : ____ 0.996 (active)

Reported viability score, molecule "CCCc1nc2c(C)cc(-c3nc4ccccc4n3C)cc2n1Cc1ccc(-c2ccccc2C(=O)O)cc1" : ____ 0.993 (active)

Reported viability score, molecule "COc1ccc(CN(CCN(C)C)c2ccccn2)cc1.O=C(O)/C=C\C(=O)O" : ____ 0.946 (active)

Reported viability score, molecule "CN1CCc2c(sc3[nH]c(=S)n(CCc4ccccc4)c(=O)c23)C1" : ____ 1.01 (active)

Reported viability score, molecule "C[C@@H](O[C@H]1OCCN(Cc2nc(=O)[nH][nH]2)[C@H]1c1ccc(F)cc1)c1cc(C(F)(F)F)cc(C(F)(F)F)c1" : ____ 0.264 (inactive)

Reported viability score, molecule "Cc1cccc(C(=O)Nc2cccc([N+](=O)[O-])c2C)c1" : ____ 0.992 (active)

Reported viability score, molecule "O=C(NCC#CCOc1cccc(C(F)(F)F)c1)Nc1c(F)cccc1F" : ____ 1.01 (active)

* * *

Hi there, I'd appreciate the recorded NF-kB reporter for every entry that follows.
test system: RAW-Dual (murine macrophage reporter line); experiment: NF-kB reporter (SEAP) activity fold change vs agonist alone; higher = enhanced NF-kB activity; conditions: modulator concentration 10 µM; agonist: MPLA […]
Lab note: record the figure alone, no unit after it.

Reported NF-kB reporter, molecule "O=C(NCCCn1ccc2cccnc21)c1cccc(Br)c1" : ____ 0.937

Reported NF-kB reporter, molecule "COc1ccc2ccccc2c1C=C1SC(=S)N(CC(=O)O)C1=O" : ____ 1

Reported NF-kB reporter, molecule "NC(=O)CSc1nc2ccccc2[nH]1" : ____ 0.998

Reported NF-kB reporter, molecule "Cc1nc2n(c(=O)c1CCN1CCC(c3noc4cc(F)ccc34)CC1)CCCC2" : ____ 0.915

Reported NF-kB reporter, molecule "CCN(CC)c1ccc(C=NNC(=O)c2ccccc2C)c(O)c1" : ____ 3.2

Reported NF-kB reporter, molecule O=C(Nc1ccc([N+](=O)[O-])cc1Br)C1CC12CCC2 (stereo not drawn) : ____ 1.05

Reported NF-kB reporter, molecule "O=C(O)CCC(=O)Nc1ccc(Br)cn1" : ____ 1.02

Reported NF-kB reporter, molecule O=C(NC(Cc1cc(=O)[nH]c2ccccc12)C(=O)O)c1ccc(Cl)cc1 (stereo not drawn) : ____ 0.968

Reported NF-kB reporter, molecule COC(CNC(=O)COc1cccc2c1OC(C)(C)C2)c1ccc(Cl)s1 (stereo not drawn) : ____ 0.998

Reported NF-kB reporter, molecule "Cc1ccc(C(=O)NC(=S)Nc2nc(-c3cccc([N+](=O)[O-])c3)cs2)cc1C" : ____ 0.977

Reported NF-kB reporter, molecule "O=[N+]([O-])c1cc(C(F)(F)F)ccc1N1CCN(CC=Cc2ccccc2)CC1" : ____ 0.985

Reported NF-kB reporter, molecule COC(CNC(=O)CSc1ccc(F)cc1)c1ccc(C)s1 (stereo not drawn) : ____ 1.05

Reported NF-kB reporter, molecule "COc1ccc(Cn2cc3c(-c4ccc(F)cc4)nnc-3c3cc(OC)c(OC)cc32)cc1" : ____ 2.16

Reported NF-kB reporter, molecule "CCCCOc1ccc(C(=O)Nc2cc(-c3nc4ccccc4o3)ccc2OC)cc1" : ____ 0.965

Reported NF-kB reporter, molecule "CN(CCO)c1ccc2nonc2c1[N+](=O)[O-]" : ____ 1.33

Reported NF-kB reporter, molecule COC(CNC(=O)C(C)(C)Oc1ccc(Cl)cc1)c1cccc(F)c1 (stereo not drawn) : ____ 1.14

Reported NF-kB reporter, molecule "O=C(CCCCCCNC(=O)c1cnc(N(c2ccccc2)c2ccccc2)nc1)NO" : ____ 0.797

Reported NF-kB reporter, molecule O=C1C(N2CCC(O)C2)CCN1CC(F)(F)F (stereo not drawn) : ____ 0.876

Reported NF-kB reporter, molecule "CN(C)c1ccc(C2N(C)c3ccccc3N2C)cc1" : ____ 2.19

Reported NF-kB reporter, molecule "CC(=NN1CCN(C2c3ccccc3-c3ccccc32)CC1)c1ccccc1O" : ____ 0.962

Reported NF-kB reporter, molecule "Clc1cccc(OCCCOc2cccc3cccnc23)c1" : ____ 1.53

Reported NF-kB reporter, molecule CC(=O)SCC(Cc1ccccc1)C(=O)NCC(=O)OCc1ccccc1 (stereo not drawn) : ____ 0.99

Reported NF-kB reporter, molecule "CC(=O)Nc1ccc(NC(=S)NC(=O)C=Cc2ccc(Cl)cc2Cl)cc1" : ____ 0.933
